MEASUREMENT TARGET: human TPO receptor (hTPOR) (Homo sapiens)
Sequence (P40238 26-635): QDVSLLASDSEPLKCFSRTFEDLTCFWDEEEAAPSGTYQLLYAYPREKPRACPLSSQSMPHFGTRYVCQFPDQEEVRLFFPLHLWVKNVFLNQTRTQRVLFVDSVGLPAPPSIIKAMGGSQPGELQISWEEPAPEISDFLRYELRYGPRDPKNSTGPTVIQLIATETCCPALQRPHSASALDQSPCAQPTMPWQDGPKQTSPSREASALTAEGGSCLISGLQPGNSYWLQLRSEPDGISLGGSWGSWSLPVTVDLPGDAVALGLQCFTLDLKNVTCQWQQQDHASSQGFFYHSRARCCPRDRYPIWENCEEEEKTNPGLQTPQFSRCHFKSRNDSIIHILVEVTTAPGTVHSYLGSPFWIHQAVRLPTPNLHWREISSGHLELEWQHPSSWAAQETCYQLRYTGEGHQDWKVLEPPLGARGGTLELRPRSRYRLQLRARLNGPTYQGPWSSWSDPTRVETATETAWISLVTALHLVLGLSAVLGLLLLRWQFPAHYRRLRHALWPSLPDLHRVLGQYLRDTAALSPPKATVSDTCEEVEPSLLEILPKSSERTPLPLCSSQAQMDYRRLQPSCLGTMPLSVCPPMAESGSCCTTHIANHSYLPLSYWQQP
ASSAY OVERVIEW: Proliferation of TPO dependent BaF/hTPOR cells (thrombopoietic activity, WST-1)
REPORTED CONDITIONS: 20 hours + 4 hours WST-1, absorbance at 450 nm, ED50 = half concentration of the concentration showing the maximum thrombopoietic activity
OBSERVABLE: EC50 (nM)
Express your answer in nM, writing the number without its unit.

Incoming: Checklist item: EC50 tested on human TPO receptor (hTPOR) (Homo sapiens), entry CCCCOC(=O)c1ccc(-c2csc(NC(=O)c3ccc(/C=C4\SC(=S)NC4=O)cc3)n2)cc1 [Compound A-26] , value?
Outgoing: 72

Incoming: Checklist item: EC50 tested on human TPO receptor (hTPOR) (Homo sapiens), entry O=C1NC(=S)S/C1=C\c1ccc(C(=O)Nc2nc3c(s2)CCCc2ccccc2-3)cc1 [Compound A-50] , value?
Outgoing: 26

Incoming: Checklist item: EC50 tested on human TPO receptor (hTPOR) (Homo sapiens), entry O=C1NC(=S)S/C1=C\c1ccc(C(=O)Nc2nc3c(s2)CSc2ccccc2-3)cc1 [Compound A-59] , value?
Outgoing: 84

Incoming: Checklist item: EC50 tested on human TPO receptor (hTPOR) (Homo sapiens), entry O=C1NC(=O)C(=Cc2ccc(C(=O)Nc3nc(-c4ccc(-c5ccccc5)cc4)cs3)cc2)S1 [Compound B-6] , value?
Outgoing: 72

Incoming: Checklist item: EC50 tested on human TPO receptor (hTPOR) (Homo sapiens), entry O=C1NC(=S)SC1=Cc1ccc(C(=O)Nc2nc(-c3ccc(F)cc3)cs2)cc1 [Compound A-3] , value?
Outgoing: 17

Incoming: Checklist item: EC50 tested on human TPO receptor (hTPOR) (Homo sapiens), entry O=C1NC(=S)SC1=Cc1ccc(C(=O)Nc2nc(-c3ccc(-c4ccccc4)cc3)cs2)cc1 [Compound A-7] , value?
Outgoing: 60

Incoming: Checklist item: EC50 tested on human TPO receptor (hTPOR) (Homo sapiens), entry O=C1NC(=S)S/C1=C\c1ccc(C(=O)Nc2nc(-c3cccc(F)c3)cs2)cc1 [Compound A-64] , value?
Outgoing: 47

Incoming: Checklist item: EC50 tested on human TPO receptor (hTPOR) (Homo sapiens), entry O=C1NC(=O)C(=Cc2ccc(C(=O)Nc3nc(-c4ccc(Cl)c(Cl)c4)cs3)s2)S1 [Compound E-2] , value?
Outgoing: 62
